The measured values listed here are drawn from paper PMC3513969.

- method_description: Single dose escalation and multiple dosing pharmacokinetic study of LipoCol Forte
- applied_conditions: human, plasma, oral, 1 LipoCol Forte capsule, Tmax, healthy subjects, fed, single dose one LipoCol Forte capsule; mean ± SD, n = 14
Quick reference: Tmax of the listed items.
// return numeric value only (unit: h, not printed)

Answer with the recorded Tmax for the compound listed here: CC[C@H](C)C(=O)O[C@H]1C[C@@H](C)C=C2C=C[C@H](C)[C@H](CC[C@@H](O)C[C@@H](O)CC(=O)O)[C@H]21 [Lovastatin acid, lovastatin acid]
5.07

Give the measured Tmax for CC[C@H](C)C(=O)O[C@H]1C[C@@H](C)C=C2C=C[C@H](C)[C@H](CC[C@@H]3C[C@@H](O)CC(=O)O3)[C@H]21 [Pure lovastatin, lovastatin, reference compound]
3.46

----------
- method_description: Single dose escalation and multiple dosing pharmacokinetic study of LipoCol Forte
- applied_conditions: human, plasma, oral, 1 LipoCol Forte capsule, AUC0–12, healthy subjects, fed, multiple doses one LipoCol Forte capsule BID for 5 days; mean ± SD, n = 14
Reported AUC(0-t) by item:
Express it in ng·h/mL; write the number only.

molecule | units_symbol | AUC(0-t)
CC[C@H](C)C(=O)O[C@H]1C[C@@H](C)C=C2C=C[C@H](C)[C@H](CC[C@@H](O)C[C@@H](O)CC(=O)O)[C@H]21 [Lovastatin acid, lovastatin acid] | ng·h/mL | 32.4

From here, focus on the item given below.
Item CC[C@H](C)C(=O)O[C@H]1C[C@@H](C)C=C2C=C[C@H](C)[C@H](CC[C@@H]3C[C@@H](O)CC(=O)O3)[C@H]21 [Pure lovastatin, lovastatin, reference compound] : provide AUC(0-t)
5.22

----------
- method_description: Pharmacokinetic interaction between gemfibrozil and LipoCol Forte
- Assay type: in vivo, human
- applied_conditions: human, plasma, oral, 1 LipoCol Forte capsule
Measured half-life, listed per entry.
Quick note: give the figure in h, leave out the unit.

compound | units_symbol | half-life
CC[C@H](C)C(=O)O[C@H]1C[C@@H](C)C=C2C=C[C@H](C)[C@H](CC[C@@H]3C[C@@H](O)CC(=O)O3)[C@H]21 [Pure lovastatin, lovastatin, reference compound] | h | 2.12

Consider the compound CC[C@H](C)C(=O)O[C@H]1C[C@@H](C)C=C2C=C[C@H](C)[C@H](CC[C@@H](O)C[C@@H](O)CC(=O)O)[C@H]21 . State its measured half-life.
1.94

----------
- method_description: Single dose escalation and multiple dosing pharmacokinetic study of LipoCol Forte
- applied_conditions: human, plasma, oral, 1 LipoCol Forte capsule, Vd/F, healthy subjects, fed, single dose one LipoCol Forte capsule; mean ± SD, n = 14
measure: Vd/F (L)
Expressed in L, but write only the number.

compound | observed_value
CC[C@H](C)C(=O)O[C@H]1C[C@@H](C)C=C2C=C[C@H](C)[C@H](CC[C@@H]3C[C@@H](O)CC(=O)O3)[C@H]21 [Pure lovastatin, lovastatin, reference compound] | 3080

Kindly consider the entry below.
Please list Vd/F recorded for the compound CC[C@H](C)C(=O)O[C@H]1C[C@@H](C)C=C2C=C[C@H](C)[C@H](CC[C@@H](O)C[C@@H](O)CC(=O)O)[C@H]21 [Lovastatin acid, lovastatin acid]
603

----------
- method_description: Single dose escalation and multiple dosing pharmacokinetic study of LipoCol Forte
- applied_conditions: human, plasma, oral, 4 LipoCol Forte capsules, Vd/F, healthy subjects, fed, single dose four LipoCol Forte capsules; mean ± SD, n = 14
Recorded Vd/F for the following compounds
Kindly provide the numeric value in L only, without the unit symbol.

compound | units_symbol | Vd/F
CC[C@H](C)C(=O)O[C@H]1C[C@@H](C)C=C2C=C[C@H](C)[C@H](CC[C@@H]3C[C@@H](O)CC(=O)O3)[C@H]21 [Pure lovastatin, lovastatin, reference compound] | L | 3860

Please examine the following record next.
Complete the entry with Vd/F for CC[C@H](C)C(=O)O[C@H]1C[C@@H](C)C=C2C=C[C@H](C)[C@H](CC[C@@H](O)C[C@@H](O)CC(=O)O)[C@H]21
456
